B1: glmS ribozyme (parent)
chain: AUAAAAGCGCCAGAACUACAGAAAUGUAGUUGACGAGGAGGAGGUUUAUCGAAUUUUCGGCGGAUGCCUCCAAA

Variants of: B1
Assay: self-cleavage kobs at 640 uM GlcN6P; higher = faster cleavage; RNA array
Conditions: with glucosamine-6-phosphate
Fewer inactive variants are shown than the library holds.
measured.property: self-cleavage kobs at 640 uM GlcN6P

I would be grateful if you could share the reported self-cleavage kobs at 640 uM GlcN6P for A15U G35U A39C .
< 1e-05 s⁻¹

I would be grateful if you could share the reported self-cleavage kobs at 640 uM GlcN6P for G40C G43U U55C .
< 1e-05 s⁻¹

I would be grateful if you could share the reported self-cleavage kobs at 640 uM GlcN6P for C16U A64G .
0.00457 s⁻¹

I would be grateful if you could share the reported self-cleavage kobs at 640 uM GlcN6P for C8A G43A .
< 1e-05 s⁻¹

I would be grateful if you could share the reported self-cleavage kobs at 640 uM GlcN6P for G41U G44C U54C .
< 1e-05 s⁻¹

I would be grateful if you could share the reported self-cleavage kobs at 640 uM GlcN6P for G35U G41A A64G .
< 1e-05 s⁻¹

I would be grateful if you could share the reported self-cleavage kobs at 640 uM GlcN6P for U56C G66C .
6.26e-05 s⁻¹

I would be grateful if you could share the reported self-cleavage kobs at 640 uM GlcN6P for G9A U65G C71G .
< 1e-05 s⁻¹

I would be grateful if you could share the reported self-cleavage kobs at 640 uM GlcN6P for U30G U46G .
0.000333 s⁻¹

I would be grateful if you could share the reported self-cleavage kobs at 640 uM GlcN6P for A6U A39C G60A .
< 1e-05 s⁻¹

I would be grateful if you could share the reported self-cleavage kobs at 640 uM GlcN6P for A6C G41A .
< 1e-05 s⁻¹

I would be grateful if you could share the reported self-cleavage kobs at 640 uM GlcN6P for A52G U65A .
6.01e-05 s⁻¹

I would be grateful if you could share the reported self-cleavage kobs at 640 uM GlcN6P for U46C C50G .
< 1e-05 s⁻¹

I would be grateful if you could share the reported self-cleavage kobs at 640 uM GlcN6P for C11U A15C U46A .
< 1e-05 s⁻¹

I would be grateful if you could share the reported self-cleavage kobs at 640 uM GlcN6P for G43A C50G .
< 1e-05 s⁻¹

I would be grateful if you could share the reported self-cleavage kobs at 640 uM GlcN6P for A12G C16G C50G C68G .
0.000104 s⁻¹

I would be grateful if you could share the reported self-cleavage kobs at 640 uM GlcN6P for G38U A64U .
< 1e-05 s⁻¹

I would be grateful if you could share the reported self-cleavage kobs at 640 uM GlcN6P for U45G U46G .
0.000961 s⁻¹

I would be grateful if you could share the reported self-cleavage kobs at 640 uM GlcN6P for C16G G35C U55A U56A .
< 1e-05 s⁻¹

I would be grateful if you could share the reported self-cleavage kobs at 640 uM GlcN6P for C16G U47A .
0.000755 s⁻¹
